B1: unnamed (parent)
chain: MDIDPYKEFGATVELLSFLPSDFFPSVRDLLDTASALYREALESPEHCSPHHTALRQAILCWGELMTLATWVGVNLEDPASRDLVVSYVNTNMGLKFRQLLWFHISCLTFGRETVIEYLVSFGVWIRTPPAYRPPNAPILSTLPETTVVRRRGRSPRRRTPSPRRRRSQSPRRRRSQSRESQC

Variants of: B1
Experiment: capsid assembly (Ca assem)
Conditions: with partner chain of the complex shown
The following variants are shown together with reported ratio to parent values.
Format: numeric value only, no unit, no commentary.

ratio to parent for chain 1 E145D ?
1.05

Requested read-out: ratio to parent. Entry: chain 1 L140A
1.32

Looking for the measured ratio to parent of chain 1 T146A T147A , can you help?
1.08

What value of ratio to parent has been recorded for this entry: chain 1 L143I
0.97

I'd like to know its ratio to parent. The variant in question is chain 1 L143A
1.05

Continuing:
What value of ratio to parent has been recorded for this entry: chain 1 S141A
1.03

Need ratio to parent of chain 1 S141T V148I V149I , thanks.
0.98
